- Tested on: MDA-MB-468
- EXPERIMENT: Growth inhibition of human MDA-MB-468 cells incubated for 48 hrs by sulforhodamine B assay
- Type: functional, cell-based
- CONDITION LABEL: MDA-MB-468, 48 h, read-out: TGI
RECORDED ENDPOINT: TGI

1) COc1cc(Cl)cc(-c2nn(-c3cccc(NC(=O)Nc4cccc(C(F)(F)F)c4)c3)cc2-c2ccncc2)c1: 49.9 µM
2) COc1cc(Cl)cc(-c2nn(-c3cccc(NC(=O)Nc4cc(C(F)(F)F)cc(C(F)(F)F)c4)c3)cc2-c2ccncc2)c1: 2.52 µM
3) O=C(Nc1cccc(-n2cc(-c3ccncc3)c(-c3cc(O)cc(Cl)c3)n2)c1)c1cc(C(F)(F)F)cc(C(F)(F)F)c1: > 100 µM
4) COc1cc(Cl)cc(-c2nn(-c3cccc(NC(=O)Nc4ccc(Cl)c(Cl)c4)c3)cc2-c2ccncc2)c1: 73.7 µM
5) O=C(Nc1cccc(-n2cc(-c3ccncc3)c(-c3cc(O)cc(Cl)c3)n2)c1)c1ccc(N2CCOCC2)c(C(F)(F)F)c1: 43.3 µM

###

- Tested on: A498
- EXPERIMENT: Growth inhibition of human A498 cells incubated for 48 hrs by sulforhodamine B assay
- Type: functional, cell-based
- CONDITION LABEL: A498, 48 h, read-out: pTGI (converted)
RECORDED ENDPOINT: TGI (µM)

1. COc1cc(Cl)cc(-c2nn(-c3cccc(NC(=O)Nc4ccc(Cl)c(C(F)(F)F)c4)c3)cc2-c2ccncc2)c1: 4.27
2. O=C(Nc1cccc(-n2cc(-c3ccncc3)c(-c3cc(O)cc(Cl)c3)n2)c1)c1ccc(N2CCOCC2)c(C(F)(F)F)c1: 72.4
3. COc1cc(Cl)cc(-c2nn(-c3cccc(NC(=O)Nc4ccc(Cl)c(Cl)c4)c3)cc2-c2ccncc2)c1: 91.2
4. O=C(Nc1cccc(-n2cc(-c3ccncc3)c(-c3cc(O)cc(Cl)c3)n2)c1)Nc1ccc(Cl)c(Cl)c1: 9.12

###

- System: SF-268
- EXPERIMENT: Growth inhibition of human SF268 cells assessed as cell growth at 0.1 uM incubated for 48 hrs by sulforhodamine B assay relative to control
- Format: functional
- CONDITION LABEL: SF-268, 48 h, read-out: Activity
RECORDED ENDPOINT: growth at 0.1 µM (%)

1. COc1cc(Cl)cc(-c2nn(-c3cccc(NC(=O)Nc4ccc(Cl)c(Cl)c4)c3)cc2-c2ccncc2)c1: 95
2. COc1cc(Cl)cc(-c2nn(-c3cccc(NC(=O)Nc4cccc(C(F)(F)F)c4)c3)cc2-c2ccncc2)c1: 94
3. COc1cc(Cl)cc(-c2nn(-c3cccc(NC(=O)c4cccc(C(F)(F)F)c4)c3)cc2-c2ccncc2)c1: 100
4. COc1cc(Cl)cc(-c2nn(-c3cccc(NC(=O)Nc4cc(C(F)(F)F)cc(C(F)(F)F)c4)c3)cc2-c2ccncc2)c1: 99
5. O=C(Nc1cccc(-n2cc(-c3ccncc3)c(-c3cc(O)cc(Cl)c3)n2)c1)c1ccc(N2CCOCC2)c(C(F)(F)F)c1: 101

###

- Test system: OVCAR-5
- EXPERIMENT: Growth inhibition of human OVCAR5 cells incubated for 48 hrs by sulforhodamine B assay
- Assay type: functional, cell-based
- CONDITION LABEL: OVCAR-5, 48 h, read-out: pTGI (converted)
Listing of recorded TGI by entry.
RECORDED ENDPOINT: TGI (µM)

1. COc1cc(Cl)cc(-c2nn(-c3cccc(NC(=O)Nc4cc(C(F)(F)F)cc(C(F)(F)F)c4)c3)cc2-c2ccncc2)c1: 12.9
2. COc1cc(Cl)cc(-c2nn(-c3cccc(NC(=O)Nc4cccc(C(F)(F)F)c4)c3)cc2-c2ccncc2)c1: 30.2
3. COc1cc(Cl)cc(-c2nn(-c3cccc(NC(=O)Nc4ccc(Cl)c(C(F)(F)F)c4)c3)cc2-c2ccncc2)c1: 28.8
4. O=C(Nc1cccc(-n2cc(-c3ccncc3)c(-c3cc(O)cc(Cl)c3)n2)c1)c1cc(C(F)(F)F)cc(C(F)(F)F)c1: 38
